biological target: Mu-type opioid receptor (Rattus norvegicus)
Sequence (P33535 whole entry): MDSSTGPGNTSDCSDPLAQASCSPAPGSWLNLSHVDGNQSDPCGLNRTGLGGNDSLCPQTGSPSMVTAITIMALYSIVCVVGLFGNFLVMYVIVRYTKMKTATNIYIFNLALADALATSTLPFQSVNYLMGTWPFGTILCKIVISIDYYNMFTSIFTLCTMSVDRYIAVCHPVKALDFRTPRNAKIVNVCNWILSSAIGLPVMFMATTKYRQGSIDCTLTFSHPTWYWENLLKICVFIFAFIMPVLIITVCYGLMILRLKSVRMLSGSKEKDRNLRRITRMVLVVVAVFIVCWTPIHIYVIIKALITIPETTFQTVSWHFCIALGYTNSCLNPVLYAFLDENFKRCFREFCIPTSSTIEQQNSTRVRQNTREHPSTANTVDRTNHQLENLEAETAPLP
pIC50: −log10 of the molar value.
Mark Met for reported pIC50 of 7 or greater; mark Not met for anything smaller.

Look over these answered cases.
NC[C@H](Cc1ccc(O)cc1)NC[C@@H](N)Cc1ccc(O)cc1 ... Not met
CCN[C@H](CN[C@H](CN)Cc1ccc(O)cc1)Cc1ccc(O)cc1 ... Not met
CCN[C@H](CN[C@H](CN[C@H](CN[C@H](CN[C@@H](CN[C@H](CN)Cc1ccc(O)cc1)[C@@H](C)O)Cc1ccccc1)Cc1ccc(O)cc1)Cc1ccc(O)cc1)Cc1ccc(O)cc1 ... Not met
CNC[C@H](Cc1ccccc1)N(C)C[C@H](Cc1ccc(O)cc1)N(C)C[C@H](Cc1ccc(O)cc1)N(C)C ... Met
CCN[C@H](CN[C@H](CN[C@@H](Cc1ccccc1)CN1CCC[C@H]1CN[C@@H](Cc1ccc(O)cc1)CN1CCC[C@H]1CN)Cc1ccc(O)cc1)Cc1ccc(O)cc1 ... Met
CCN[C@H](CN[C@H](CN[C@H](CN[C@H](CN[C@H](CN[C@H](CN)Cc1ccccc1)Cc1ccc(O)cc1)Cc1ccccc1)Cc1ccccc1)Cc1ccc(O)cc1)Cc1ccc(O)cc1 ... Not met
CCN[C@H](CN[C@H](CN[C@@H](Cc1ccccc1)CN1CCC[C@H]1CN[C@H](CN)Cc1ccc(O)cc1)Cc1ccc(O)cc1)Cc1ccc(O)cc1 ... Met

Let's switch to this compound now.
Query block: Determine whether this compound has pIC50 no lower than 7: `CCN[C@H](CN[C@H](CN[C@@H](Cc1ccccc1)CN1CCC[C@H]1CN[C@@H](CN[C@@H](CN)CO)[C@@H](C)O)Cc1ccc(O)cc1)Cc1ccc(O)cc1`
Result block: Met
